- tested-system: human Serotonin, 5-Hydroxytryptamine Receptor 6 (5HT6), HTR6 (gene 3362) (UniProt P50406)
- Sequence (P50406 whole entry, looked up): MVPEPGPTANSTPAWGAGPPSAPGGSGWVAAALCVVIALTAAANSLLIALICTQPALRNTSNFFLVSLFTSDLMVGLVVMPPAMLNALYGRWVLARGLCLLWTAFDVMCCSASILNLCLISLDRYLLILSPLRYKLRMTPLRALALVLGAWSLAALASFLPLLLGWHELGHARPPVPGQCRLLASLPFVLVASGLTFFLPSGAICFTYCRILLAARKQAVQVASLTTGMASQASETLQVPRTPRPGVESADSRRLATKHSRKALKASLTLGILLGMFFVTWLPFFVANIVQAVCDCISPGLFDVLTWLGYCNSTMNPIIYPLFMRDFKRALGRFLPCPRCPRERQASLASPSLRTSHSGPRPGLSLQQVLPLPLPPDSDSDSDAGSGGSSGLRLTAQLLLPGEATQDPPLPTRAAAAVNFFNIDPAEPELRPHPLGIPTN
- procedure-details: NVS_GPCR_h5HT6: NovaScreen (NVS) G Protein-Coupled Receptor Assay for human Serotonin, 5-Hydroxytryptamine Receptor 6 (5HT6) (AID 2283253)
Inconclusive results are not listed. Calls of active or inactive are those of the source. Rule for the calls: active = hit-call score of the fitted dose curve at least 0.9, where 1 is the maximum; inconclusive = response in the unintended direction; inactive = score below 0.9.
Permitted responses: 1 = active, 0 = inactive

Study these solved cases before continuing.
{"columns": ["compound", "assigned-class"],
 "data": [
  ["C=C(C)[C@H]1Cc2c(ccc3c2O[C@@H]2COc4cc(OC)c(OC)cc4[C@@H]2C3=O)O1", 1],
  ["CCC(=O)Nc1ccc(Cl)c(Cl)c1", 1],
  ["COP(=O)(OC)OC(Br)C(Cl)(Cl)Br (centres undefined)", 1]
]}

stdin: Called result for `CC(C)N(C(=O)SCC(Cl)=C(Cl)Cl)C(C)C`
stdout: 0

====

- Read-out: Apolipoprotein A-V (APOA5) gene, APOA5 (gene 116519)
- procedure-details: LTEA_HepaRG_APOA5: Life Technologies and Expression Analysis (LTEA) Assay for Apolipoprotein A-V (APOA5) gene using HepaRG (AID 2283474)
- measurement-context: mRNA level, 48 h; actives raise or lower the signal
- Experimental: LTEA_HepaRG is a cell based, multiplexed-readout assay that uses HepaRG, a human liver cell line, with measurements taken at 48 hours after chemical dosing on a 96-well plate.LTEA_HepaRG_APOA5 is one of 102 assay component(s) measured in the LTEA HepaRG cell culture assay. It is a marker of Steatosis.Data from the assay component LTEA_HepaRG_APOA5 was analyzed into 1 endpoint. […]
Calls of active or inactive are those of the source. How the source made its calls: active means hit-call score of the fitted dose curve at least 0.9, where 1 is the maximum; inactive means score below 0.9.
Permitted responses: TRUE = active, FALSE = inactive

Study these solved cases before continuing.
{"columns": ["molecule", "assigned-class"],
 "data": [
  ["COP(=O)(NC(C)=O)SC (stereo not given)", "FALSE"],
  ["O=[N+]([O-])c1cc(C(F)(F)F)c(Cl)c([N+](=O)[O-])c1Nc1ncc(C(F)(F)F)cc1Cl", "FALSE"],
  ["CSc1nnc(C(C)(C)C)c(=O)n1N", "FALSE"],
  ["FC(F)C(F)(F)OCC(Cn1cncn1)c1ccc(Cl)cc1Cl (stereo not given)", "TRUE"],
  ["CCOP(=O)(SC(C)CC)N1CCSC1=O (stereo not given)", "FALSE"],
  ["CCCSP(=O)(OCC)SCCC", "TRUE"]
]}

stdin: Called result for `CCOP(=S)(OCC)Oc1cc(C)nc(C(C)C)n1`
stdout: FALSE

stdin: Called result for `CNC(=O)Oc1cccc2c1OC(C)(C)O2`
stdout: FALSE

stdin: Called result for `C[Si](Cn1cncn1)(c1ccc(F)cc1)c1ccc(F)cc1`
stdout: TRUE

stdin: Called result for `CC[C@H](C)[C@H]1O[C@]2(C=C[C@@H]1C)C[C@@H]1C[C@@H](C/C=C(\C)[C@@H](O[C@H]3C[C@H](OC)[C@@H](O[C@H]4C[C@H](OC)[C@@H](NC)[C@H](C)O4)[C@H](C)O3)[C@@H](C)/C=C/C=C3\CO[C@@H]4[C@H](O)C(C)=C[C@@H](C(=O)O1)[C@]34O)O2`
stdout: FALSE

stdin: Called result for CCc1cnc(C2=NC(C)(C(C)C)C(=O)N2)c(C(=O)O)c1 (stereo not given)
stdout: FALSE

stdin: Called result for `Cc1cc(C2CC2)nc(Nc2ccccc2)n1`
stdout: FALSE

stdin: Called result for `CN(C)NC(=O)CCC(=O)O`
stdout: FALSE

stdin: Called result for CCOP(=S)(OCC)OC(Cl)C(Cl)(Cl)Cl (stereo not given)
stdout: FALSE
